quantity: melting point

Fill in the blank: the reported melting point of `COC(=O)N[C@H](C(=O)N[C@@H](Cc1ccccc1)[C@H](O)CN1C[C@H]2CCCC[C@H]2C[C@H]1C(=O)NC(C)(C)C)C(C)(C)S(C)(=O)=O` is ____.
190 to 194 °C

Value lookup for melting point; key = `CC(C)(C)NC(=O)[C@@H]1C[C@@H]2CCCC[C@@H]2CN1C[C@@H](O)[C@H](Cc1ccccc1)NC(=O)[C@@H](NS(C)(=O)=O)C(C)(C)S(C)(=O)=O`
135 to 160 °C

# get_value(readout='melting point', item= `CC(C)(C)NC(=O)[C@@H]1C[C@@H]2CCCC[C@@H]2CN1C[C@@H](O)[C@H](Cc1ccccc1)NC(=O)[C@@H](Nc1nc(CO)cs1)C(C)(C)S(C)(=O)=O` )
126 °C

====

Quick record of IC50 values for HIV-1 protease (Human immunodeficiency virus type 1 group M subtype B).
Please respond with the number in nM and leave the unit unwritten.

Please report the recorded IC50 for `CC(C)NCC(=O)N[C@H](C(=O)N[C@@H](Cc1ccccc1)[C@H](O)CN1C[C@H]2CCCC[C@H]2C[C@H]1C(=O)NC(C)(C)C)C(C)(C)S(C)(=O)=O` .
4

State the recorded IC50 for this entry: `CC(C)(C)NC(=O)[C@@H]1C[C@@H]2CCCC[C@@H]2CN1C[C@@H](O)[C@H](Cc1ccccc1)NC(=O)[C@@H](NC(=O)N1CCOCC1)C(C)(C)S(C)(=O)=O`
10.7

Which measured IC50 value corresponds to `CN(Cc1cccnc1)C(=O)N[C@H](C(=O)N[C@@H](Cc1ccccc1)[C@H](O)CN1C[C@H]2CCCC[C@H]2C[C@H]1C(=O)NC(C)(C)C)C(C)(C)S(C)(=O)=O` ?
1

Can you share its IC50? I mean this compound: `CC(C)(C)NC(=O)[C@@H]1C[C@@H]2CCCC[C@@H]2CN1C[C@@H](O)[C@H](Cc1ccccc1)NC(=O)[C@@H](NC(=O)c1cccc(F)c1)C(C)(C)S(C)(=O)=O`
1.4

Could you tell me which IC50 is on file for `CC(C)(C)NC(=O)[C@@H]1C[C@@H]2CCCC[C@@H]2CN1C[C@@H](O)[C@H](Cc1ccccc1)NC(=O)[C@@H](NC(=O)COc1cccnc1)C(C)(C)S(C)(=O)=O` ?
0.6

meta.source: patent US6472404B1
